Just for reference, the DeepSol protein solubility set is where these values come from.

- testMethodNotes: soluble on expression in E. coli; label from the status in PepcDB or PDB records
measure: soluble on expression in E. coli

METDNVLKRILEIEHGFVHILDAAKEILSSSSEERSFAIASEFFDHEAYQPRMLATAILGHLAGTNSEALLFLKDRVSLDMNWRVQEMLAKAFDTFCKEQGYEKSLPVIREWLDSDNANVVRAVTEGLRIWTSRPFFKENPCLAIEWLSRHRGHESEYVRKSVGNALKDISKKHKESVAEELKKWDLSDPLVLFTYKHASKHPDKDIKKQ not soluble
MGSDKIHHHHHHMHWRGEYSCLSDSWRVSTQEDGGRLQMLTFRSARPEDEDALYAISLATGDAGQDATPLYNDGRMVGHIYSVPYLRLWPDAVFVAEDEEGVCGYIAGALDTVLHEQRLEQEWWPHLRALYPDPGGDPQTWDADQRRAHFIHHPRNTPSWLTDPFPAHIHMNLLPRTQGKGGGTRLLSRWLDMARQNNVYGIHLGASERNHAGMRFWETRGFKHLDSHETPGSVWFGMALE not soluble
